- experimental details: Cytotoxicity against human MCF-10F cells assessed as cell growth inhibition
- Type: toxicity, cell-based
Parameter: GI50. Scope: all listed entries.
Quick note: give the figure in µM, leave out the unit.

compound: COc1cccc2c1C(=O)c1c(O)c3c(c(O)c1C2=O)C[C@@](O)(C(=O)CO)C[C@@H]3O[C@H]1C[C@H](N)[C@H](O)[C@H](C)O1 [DOXORUBICIN]
unit spec: µM
GI50: 14.2

Could you now consider this next compound?
Look up GI50 for this compound: CCOC(=O)C1=C(C)NC(C)=C(C(=O)OCC)C1c1cccc2c1OCO2
171

###

- experimental details: Cytotoxicity against human MRC5 cells assessed as cell growth inhibition
- Assay type: toxicity, cell-based
// reported GI50 for each item listed

smiles string: COc1cccc2c1C(=O)c1c(O)c3c(c(O)c1C2=O)C[C@@](O)(C(=O)CO)C[C@@H]3O[C@H]1C[C@H](N)[C@H](O)[C@H](C)O1
value: 12.5 µM

--- query ---
Name the reported GI50 value associated with the compound CCOC(=O)C1=C(C)NC(C)=C(C(=O)OCC)C1c1cccc2c1OCO2
61.8 µM

meta.source: ChEMBL document CHEMBL5316297
